Collected IC50 for UniProt P15538 across several studies; compounds listed below.
Molecular target: UniProt P15538
Sequence (P15538 whole entry): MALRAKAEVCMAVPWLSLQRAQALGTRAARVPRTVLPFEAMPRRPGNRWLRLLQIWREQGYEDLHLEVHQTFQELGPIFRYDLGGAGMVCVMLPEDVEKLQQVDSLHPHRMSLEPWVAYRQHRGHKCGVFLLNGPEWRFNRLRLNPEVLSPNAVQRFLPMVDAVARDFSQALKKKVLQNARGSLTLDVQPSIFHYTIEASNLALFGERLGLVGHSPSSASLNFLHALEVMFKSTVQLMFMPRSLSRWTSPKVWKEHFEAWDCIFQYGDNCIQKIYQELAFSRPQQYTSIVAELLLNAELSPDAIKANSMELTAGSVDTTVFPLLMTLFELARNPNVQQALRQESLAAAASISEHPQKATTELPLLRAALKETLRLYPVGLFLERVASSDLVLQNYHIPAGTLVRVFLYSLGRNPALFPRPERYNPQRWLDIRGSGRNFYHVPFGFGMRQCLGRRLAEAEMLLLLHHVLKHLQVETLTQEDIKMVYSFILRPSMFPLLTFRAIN

{"smiles.data": "COc1ccc2cc(-c3cnccc3C)ccc2c1", "units.label": "nM", "IC50": 114}
{"smiles.data": "CC(=O)Nc1ccc(-c2cccnc2)c(OCc2ccccc2)c1", "units.label": "nM", "IC50": 279}
{"smiles.data": "FC(F)(F)c1ccc(-c2cccnc2)c(OCCc2ccccc2)c1", "units.label": "nM", "IC50": 812}
{"smiles.data": "CCOc1cncc(-c2ccc3cc(OC)ccc3c2)c1", "units.label": "nM", "IC50": 373}
{"smiles.data": "CCn1ccc2c3c(Cn4ccnc4)cc(-c4ccccc4)nc3ccc21", "units.label": "nM", "IC50": 1010}
{"smiles.data": "COc1ccc2cc(-c3cccnc3)ccc2c1Br", "units.label": "nM", "IC50": 4480}

====

Molecular target: UniProtKB P15538
Sequence (P15538 whole entry): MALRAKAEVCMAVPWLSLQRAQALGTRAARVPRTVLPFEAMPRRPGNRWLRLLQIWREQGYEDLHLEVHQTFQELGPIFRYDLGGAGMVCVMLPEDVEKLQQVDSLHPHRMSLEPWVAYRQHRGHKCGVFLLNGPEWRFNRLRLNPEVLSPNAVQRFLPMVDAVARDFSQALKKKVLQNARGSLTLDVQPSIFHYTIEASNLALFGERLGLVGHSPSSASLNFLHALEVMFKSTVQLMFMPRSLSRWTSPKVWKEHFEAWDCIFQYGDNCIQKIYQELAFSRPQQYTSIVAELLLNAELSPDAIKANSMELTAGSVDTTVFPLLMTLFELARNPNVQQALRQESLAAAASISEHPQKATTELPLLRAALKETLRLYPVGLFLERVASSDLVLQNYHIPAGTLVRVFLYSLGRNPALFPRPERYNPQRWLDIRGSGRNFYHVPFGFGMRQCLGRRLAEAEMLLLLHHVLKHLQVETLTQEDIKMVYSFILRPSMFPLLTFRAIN
Collected IC50 for UniProtKB P15538 across several studies; molecules listed below.
Hi all, reminder that labels come from IC50, split as low (below 70 nM), moderate (70 nM to below 3000 nM), high (3000 nM or more)

{"molecule": "COc1ccc2cc(-c3cncc(C(C)O)c3)ccc2c1 (stereo not given)", "target.entity": "UniProtKB P15538", "label": "moderate"}
{"molecule": "O=C(Cc1ccccc1)N1CCc2cc(-c3cccnc3)ccc21", "target.entity": "UniProtKB P15538", "label": "moderate"}
{"molecule": "CC(=O)Nc1cccc(-c2ccc(Cc3ccncc3)cc2)c1", "target.entity": "UniProtKB P15538", "label": "moderate"}
{"molecule": "COc1ccc2c(c1)CCC(c1ccncc1)=C2", "target.entity": "UniProtKB P15538", "label": "moderate"}
{"molecule": "[O-][S+](c1ccc(F)c(Cl)c1)c1c(O)c(-c2cccnc2)cc2ccccc12 (stereo not given)", "target.entity": "UniProtKB P15538", "label": "high"}
{"molecule": "COc1ccc2cc(-c3cncc4ccccc34)ccc2c1", "target.entity": "UniProtKB P15538", "label": "low"}
{"molecule": "N#Cc1ccc(Cn2ccnc2)c2c(=O)c3ccccc3oc12", "target.entity": "UniProtKB P15538", "label": "low"}
{"molecule": "CN(C)C(=O)c1ccc(-c2ccncc2)c(OCCc2ccccc2)c1", "target.entity": "UniProtKB P15538", "label": "moderate"}
{"molecule": "[O-][S+](c1ccc(Cl)c(Cl)c1)c1c(O)c(-c2cccnc2)cc2ccccc12 (stereo not given)", "target.entity": "UniProtKB P15538", "label": "high"}
{"molecule": "Nc1ncncc1-c1ccnc2c1cnn2-c1ccc(F)cc1", "target.entity": "UniProtKB P15538", "label": "moderate"}
{"molecule": "[O-][S+](c1ccccc1)c1c(O)c(-c2cccnc2)cc2ccccc12 (stereo not given)", "target.entity": "UniProtKB P15538", "label": "high"}
{"molecule": "O=[N+]([O-])c1ccc(-c2cccnc2)c(OCc2ccccc2)c1", "target.entity": "UniProtKB P15538", "label": "low"}
{"molecule": "c1csc(-c2ccc(Cc3ccncc3)cc2)c1", "target.entity": "UniProtKB P15538", "label": "moderate"}
{"molecule": "O=S(=O)(c1cccs1)N1CCCc2cc(-c3cccnc3)ccc21", "target.entity": "UniProtKB P15538", "label": "low"}
